Parameter IC50, tested on UniProt P09252, listed per item.
Sequence (P09252 whole entry): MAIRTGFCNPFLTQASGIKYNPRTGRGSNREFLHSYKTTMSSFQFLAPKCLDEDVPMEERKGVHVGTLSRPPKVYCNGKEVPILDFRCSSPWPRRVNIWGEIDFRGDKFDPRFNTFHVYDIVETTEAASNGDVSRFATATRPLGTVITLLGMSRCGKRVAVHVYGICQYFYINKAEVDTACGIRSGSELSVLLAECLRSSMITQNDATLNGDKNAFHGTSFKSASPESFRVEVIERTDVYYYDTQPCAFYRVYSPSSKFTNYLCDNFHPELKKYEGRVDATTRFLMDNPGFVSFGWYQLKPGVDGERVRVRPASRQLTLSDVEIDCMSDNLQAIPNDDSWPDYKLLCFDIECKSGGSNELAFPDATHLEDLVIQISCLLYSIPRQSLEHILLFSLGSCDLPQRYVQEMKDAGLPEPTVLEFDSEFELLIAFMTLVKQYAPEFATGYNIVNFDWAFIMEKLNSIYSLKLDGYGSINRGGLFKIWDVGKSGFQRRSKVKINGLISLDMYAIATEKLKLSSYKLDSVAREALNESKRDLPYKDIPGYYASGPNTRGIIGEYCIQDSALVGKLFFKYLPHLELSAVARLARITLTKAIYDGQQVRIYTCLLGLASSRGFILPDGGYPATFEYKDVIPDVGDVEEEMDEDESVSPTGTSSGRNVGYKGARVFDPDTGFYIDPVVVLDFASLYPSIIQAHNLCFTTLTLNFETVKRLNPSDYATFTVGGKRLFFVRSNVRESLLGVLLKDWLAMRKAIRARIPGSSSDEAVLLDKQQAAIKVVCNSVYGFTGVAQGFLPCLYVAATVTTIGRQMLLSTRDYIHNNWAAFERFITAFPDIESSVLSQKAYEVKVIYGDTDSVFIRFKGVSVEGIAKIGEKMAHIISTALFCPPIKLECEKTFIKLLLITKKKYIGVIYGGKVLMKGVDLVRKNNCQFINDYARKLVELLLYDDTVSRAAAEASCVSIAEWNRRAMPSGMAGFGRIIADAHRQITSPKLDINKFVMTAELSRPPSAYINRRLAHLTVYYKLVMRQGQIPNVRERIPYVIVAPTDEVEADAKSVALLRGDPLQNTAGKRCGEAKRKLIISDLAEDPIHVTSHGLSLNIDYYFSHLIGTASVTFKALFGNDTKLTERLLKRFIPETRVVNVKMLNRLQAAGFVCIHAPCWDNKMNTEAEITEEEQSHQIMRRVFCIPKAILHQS
REPORTED ENDPOINT: IC50 (nM)

Consider the reported IC50 for these compounds:
COMPOUND | REPORTED ENDPOINT | RECORDED MEASUREMENT
Cn1cnc(-c2cnc(C(=O)NCc3ccc(Cl)cc3)cc2O[C@H]2CCN3C(=O)OC[C@@H]3C2)c1 | IC50 | 6.53
O=C(NCc1ccc(Cl)cc1)c1cc(O[C@H]2CCN3C(=O)OC[C@@H]3C2)c(-c2cnn(C3COC3)c2)cn1 | IC50 | 2.47
Cc1cnc(C(=O)NCc2ccc(Cl)cc2)cc1O[C@H]1CCN2C(=O)OC[C@@H]2C1 | IC50 | 38.7
COc1cnc(C(=O)NCc2ccc(Cl)cc2)cc1O[C@H]1CCN2C(=O)OC[C@@H]2C1 | IC50 | 18

(a) CO[C@H]1CN(Cc2cnc(C(=O)NCc3ccc(Cl)cc3)cc2O[C@H]2CCN3C(=O)OC[C@@H]3C2)[C@@H]1C (mixture of isomers)
(b) CC(=O)N1CCC(Oc2cc(C(=O)NCc3ccc(Cl)cc3)ncc2-c2cc(C)ns2)CC1
(c) O=C(NCc1ccc(Cl)cc1)c1cc(O[C@H]2CCN3C(=O)OC[C@@H]3C2)c(-c2cnn(CCO)c2)cn1
IN: Order field: IC50 | Direction: descending (largest first) Return the labels ranked in the requested order, please.
OUT: a, c, b
(a: 36.7 nM, c: 4.77 nM, b: 1.98 nM)
